Exercise: for every item that follows, state its recorded Neut IC50 (ug/ml) subtype A.
biological target: RSV F protein of subtype A strain A2, on virus (respiratory syncytial virus subtype A …, UniProt P03420 26-574); assay: cell-based or functional assay
Form entry: value (µg/mL) — number only.

Look up Neut IC50 (ug/ml) subtype A: ADI-15611 (antibody, V domains shown, IgG) VH: QVQLVESGAEVKKPGSSVKVSCKASGGTFGRDSISWVRQAPGQGLEWMGGINPIFHTSHYAQKFQGRVTITADESTSTAYMELGNLRSEDTAMYYCARVPPPRGHCESTSCLWGTYFAFWGQGTLVTVSS VL: ETTLTQSPATLSLSPGERATLSCRASQRVRSYLAWYQQKPGQAPRLLIYDASIRATGIPARFSGSGSGADFTLTISSLEPEDFAVYYCQLRDYWPPTWTFGQGTKVEIK
0.15

Now the same for ADI-15561 (antibody, V domains shown, IgG; also called Antibody Number 132) VH: QVQLVQSGAEVKKPGSSVKVSCKASGGTFSSYAINWVRQAPGQGLEWMGGIIPAFGTTIYAQRFQDRVTITADKSTSTAYMELRSLRSEDTAVYYCARSPPFWSDYSRGWFDPWGQGTLVTVSS VL: ETTLTQSPSALSASVGDRVTITCRASQTISGYLNWYQQKPGKAPKLLIYAASSLQSGVPSRFSGSSAGTDFTLSISNLQPEDFATYYCQQSYTTPWTFGQGTKVEIK
5.63

Now the same for ADI-15642 (antibody, V domains shown, IgG; also called Antibody Number 206) VH: EVQLVESGGGLIQPGGSLRLSCAASGFTVSSKYMSWVRQAPGKGLEWVSIIYSGGSTYHADSVKGRFTISRDNSKNTLYLQMNSLRAEDTAVYYCARDDYDFWSGNGPPEMAVWGQGTTVTVSS VL: DIRMTQSPSSLSASVGDRVTITCRASQGISNYLAWYQQKPGKVPKLLIYAASTLQSGVPSRFSGSGSETDFTLTISSLQPEDVATYYCQKYNSVPLTFGQGTKVEIK
0.499
